test: Cytotoxicity against human MCF10A cells assessed as growth inhibition after 72 hrs by MTT assay; type: cell-based; conditions: MCF-10A
// IC50 lookup, one value per entry

Example cases with answers are listed next.
CC(=O)Oc1ccc(COP(=O)(OCc2ccc(OC(C)=O)cc2)O[C@@H]2[C@@H](OP(=O)(OCc3ccc(OC(C)=O)cc3)OCc3ccc(OC(C)=O)cc3)[C@H](OCc3ccccc3)[C@@H](OCc3ccccc3)[C@H](OCc3ccccc3)[C@@H]2OP(=O)(OCc2ccc(OC(C)=O)cc2)OCc2ccc(OC(C)=O)cc2)cc1; > 20 µM
CC(=O)Oc1ccc(COP(=O)(OCc2ccc(OC(C)=O)cc2)OC2C3OC4OC(C3OCc3ccccc3)C(OP(=O)(OCc3ccc(OC(C)=O)cc3)OCc3ccc(OC(C)=O)cc3)C2O4)cc1 (stereo not drawn); > 50 µM
CC(=O)Oc1ccc(COP(=O)(OCc2ccc(OC(C)=O)cc2)O[C@H]2[C@@H]3OC(C)(C)O[C@H]3[C@H](OP(=O)(OCc3ccc(OC(C)=O)cc3)OCc3ccc(OC(C)=O)cc3)[C@H]3OC(C)(C)O[C@H]32)cc1; 25.1 µM
CC(=O)Oc1ccc(COP(=O)(OCc2ccc(OC(C)=O)cc2)O[C@@H]2[C@@H](OCc3ccccc3)[C@H](OP(=O)(OCc3ccc(OC(C)=O)cc3)OCc3ccc(OC(C)=O)cc3)[C@H](OCc3ccccc3)[C@H](OCc3ccccc3)[C@H]2OCc2ccccc2)cc1; > 40 µM
CC(=O)Oc1ccc(COP(=O)(OCc2ccc(OC(C)=O)cc2)OC2C(OCc3ccccc3)C3OCOC(C3OCc3ccccc3)C2OCc2ccccc2)cc1 (stereo not drawn); 18.9 µM

So, C#CCO[C@@H]1[C@@H](OCc2ccccc2)[C@H](OP(=O)(OCc2ccc(OC(C)=O)cc2)OCc2ccc(OC(C)=O)cc2)[C@H](OP(=O)(OCc2ccc(OC(C)=O)cc2)OCc2ccc(OC(C)=O)cc2)[C@H](OP(=O)(OCc2ccc(OC(C)=O)cc2)OCc2ccc(OC(C)=O)cc2)[C@H]1OCc1ccccc1 ? Its IC50 was > 30 µM

So, CC(=O)Oc1ccc(COP(=O)(OCc2ccc(OC(C)=O)cc2)OC2C(OCc3ccccc3)C3OC(C)OC(C3OCc3ccccc3)C2OCc2ccccc2)cc1 (stereo not drawn) ? Its IC50 was 8.19 µM

So, CC(=O)Oc1ccc(COP(=O)(OCc2ccc(OC(C)=O)cc2)OC2C3OCOC(C3OCc3ccccc3)C(OCc3ccccc3)C2OP(=O)(OCc2ccc(OC(C)=O)cc2)OCc2ccc(OC(C)=O)cc2)cc1 (stereo not drawn) ? Its IC50 was 0.85 µM

So, CC(=O)Oc1ccc(COP(=O)(OCc2ccc(OC(C)=O)cc2)OC2C3OC4OC(C3OCc3ccccc3)C(O[Si](C)(C)C(C)(C)C)C2O4)cc1 (stereo not drawn) ? Its IC50 was 38.1 µM

So, CC(=O)Oc1ccc(COP(=O)(OCc2ccc(OC(C)=O)cc2)OC2C3OCOC2C(OCc2ccccc2)C(OP(=O)(OCc2ccc(OC(C)=O)cc2)OCc2ccc(OC(C)=O)cc2)C3OCc2ccccc2)cc1 (stereo not drawn) ? Its IC50 was 23.2 µM

So, CC(=O)Oc1ccc(COP(=O)(OCc2ccc(OC(C)=O)cc2)OC2C3OCOC2C(OP(=O)(OCc2ccc(OC(C)=O)cc2)OCc2ccc(OC(C)=O)cc2)C(OP(=O)(OCc2ccc(OC(C)=O)cc2)OCc2ccc(OC(C)=O)cc2)C3OCc2ccccc2)cc1 (stereo not drawn) ? Its IC50 was > 20 µM

So, CC(=O)Oc1ccc(COP(=O)(OCc2ccc(OC(C)=O)cc2)OC2C3OC4OC(C3OCc3ccccc3)C(OCc3ccccc3)C2O4)cc1 (stereo not drawn) ? Its IC50 was 45.4 µM

So, CC(=O)Oc1ccc(COP(=O)(OCc2ccc(OC(C)=O)cc2)OC2C3OC4OC2C(OP(=O)(OCc2ccc(OC(C)=O)cc2)OCc2ccc(OC(C)=O)cc2)C(O4)C3OP(=O)(OCc2ccc(OC(C)=O)cc2)OCc2ccc(OC(C)=O)cc2)cc1 (stereo not drawn) ? Its IC50 was > 20 µM
